assay: molar heat capacity at constant pressure; details: 319.15 K; 101.33 kPa; Crystal; Small sample (50 mg) DSC
readout name: molar heat capacity at constant pressure (J/K/mol)

> print(dat)
                                   compound                              readout.name  unit.label  result.value
1    OC[C@@H](O)[C@@H](O)[C@H](O)[C@H](O)CO  molar heat capacity at constant pressure     J/K/mol        249.13
2                 OC[C@@H](O)C(O)[C@H](O)CO  molar heat capacity at constant pressure     J/K/mol        218.98
3  OC[C@H](O)C(O)[C@@H](O)CO [L-(-)-arabitol]  molar heat capacity at constant pressure     J/K/mol        226.14
4                    OC[C@@H](O)[C@@H](O)CO  molar heat capacity at constant pressure     J/K/mol        177.89
5            OC[C@@H](O)[C@H](O)[C@@H](O)CO  molar heat capacity at constant pressure     J/K/mol        227.57
6  O[C@H]1[C@H](O)[C@@H](O)[C@H](O)[C@@H](O)[C@H]1O [cis-1,2,3,5-trans-4,6-cyclohexanehexol]  molar heat capacity at constant pressure     J/K/mol        236.78
